test.system: SARS-COV-2 RBD extracellular domain expressed with a C-terminal mouse IgG2a Fc (SARS-CoV-2)
protocol.summary: Biacore SPR, mAb captured on anti-hFc, 25 C
So I've got a bunch of binders here, and I need their pKd values.
pKd field: float, defined as -log10 of concentration (mol/L).

Incoming: # query: pKd of entry mAb15159 (antibody, V domains shown) VH: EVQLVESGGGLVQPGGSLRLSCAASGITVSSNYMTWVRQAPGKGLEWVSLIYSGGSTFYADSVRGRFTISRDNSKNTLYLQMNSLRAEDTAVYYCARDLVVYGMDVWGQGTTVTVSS VL: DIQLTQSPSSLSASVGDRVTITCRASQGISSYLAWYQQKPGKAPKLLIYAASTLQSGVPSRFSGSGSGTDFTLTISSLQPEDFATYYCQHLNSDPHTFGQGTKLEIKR
Outgoing: 10.76

Incoming: # query: pKd of entry mAb14230 (antibody, V domains shown) VH: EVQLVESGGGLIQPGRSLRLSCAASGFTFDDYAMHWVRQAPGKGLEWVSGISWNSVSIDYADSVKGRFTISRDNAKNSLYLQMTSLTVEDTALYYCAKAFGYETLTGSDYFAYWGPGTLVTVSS VL: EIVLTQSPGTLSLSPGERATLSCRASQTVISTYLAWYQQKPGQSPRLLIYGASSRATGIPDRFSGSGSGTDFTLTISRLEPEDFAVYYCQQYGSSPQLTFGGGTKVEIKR
Outgoing: 9.85
